# assay system: Na^+,K^+ -ATPase (Canis lupus familiaris, UniProt P50997)
# Construct: from tissue; the cited Jorgensen 1974 method uses outer medulla of mammalian kidney (own knowledge)
# run description: biochemical
pIC50: −log10 of the molar value.
Mark 0 for pIC50 values under 6, and 1 for everything at or above.

[Q] // inclusive: pIC50 at least 6? input: CC[C@H](C/C=N/OCCN(C)C)[C@@]1(C)CC[C@H]2[C@@H](CC[C@@H]3C[C@@H](O)CC[C@@]32C)C1=O
[A] 0

[Q] // inclusive: pIC50 at least 6? input: CC[C@@H](C/C=N/OCCN(C)C)[C@@]1(C)CC[C@H]2[C@@H](CC[C@H]3C[C@@H](O)CC[C@@]32C)C1=O
[A] 0

[Q] // inclusive: pIC50 at least 6? input: CC[C@@H](C/C=N/OCCN)[C@@]1(C)CC[C@H]2[C@@H](CC[C@@H]3C[C@@H](O)CC[C@@]32C)C1=O
[A] 1
